- System: RXRa DBDmut IVT, anti-RXR (DBD mutation: RXRa K156A/R161A, NR concentration 90 nM)
- METHOD DESCRIPTION: PBM binding z-score (relative to random genomic background probes); higher = stronger binding; sequences stand for … in GC…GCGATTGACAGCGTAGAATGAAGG
MEASUREMENT TYPE: PBM binding z-score
Give bare numbers.

{"BIOSEQUENCE": "CAAACTAGGTCACCGGAAGGTCAAACTCCGCATG", "PBM binding z-score": 2.46}
{"BIOSEQUENCE": "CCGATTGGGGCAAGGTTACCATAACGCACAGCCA", "PBM binding z-score": 0.17}
{"BIOSEQUENCE": "TCTTGTAGATCAGCAGGTTAATAAAGCTGGCCAA", "PBM binding z-score": 0.531}

Below is a list of sequences. For each, state its recorded PBM binding z-score.
1. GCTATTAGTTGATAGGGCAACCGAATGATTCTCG
2. ACAGACAGGTGATGAAAGTAACTCAGGCTATCAT
3. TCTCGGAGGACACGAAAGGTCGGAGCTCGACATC
4. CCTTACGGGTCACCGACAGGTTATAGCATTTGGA

Output:
[0.36, -0.387, 1.02, 1.12]

Below is a list of sequences. For each, state its recorded PBM binding z-score.
1. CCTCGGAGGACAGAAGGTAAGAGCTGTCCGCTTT
2. GCATATAGGTAATACTAGGTGAAAGTCCGATTGT
3. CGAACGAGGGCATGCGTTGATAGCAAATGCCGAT
4. TGAATGAGGTTCTAAGATCAGGGAACGTTGCAAA
5. AGTCAAAGTTCATCTAGTTAACGTAAGATATGCT
6. TCTAGCAGGCTAGAGGGTCACTCAAGAGGTACGG
7. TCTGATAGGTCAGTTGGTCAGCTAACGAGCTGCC

Output:
1. -0.382
2. 0.563
3. 2.39
4. -0.623
5. 4.8
6. 0.0423
7. 1.1

Below is a list of sequences. For each, state its recorded PBM binding z-score.
1. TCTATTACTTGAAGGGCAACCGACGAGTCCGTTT
2. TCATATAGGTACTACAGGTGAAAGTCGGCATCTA
3. TAGCCTAGGTCAGGGGCCAGTATACCACGCGAAC
4. CTAGACAGGTGAGAAGGTAACTCAGCCTCGATTA
5. GCTTACGGGTCAAAGGGTATAGCATGAATAGAAT
6. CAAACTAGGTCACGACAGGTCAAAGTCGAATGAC

Output:
1. 1.72
2. 1.33
3. -0.891
4. -0.295
5. 2.41
6. 2.05

Below is a list of sequences. For each, state its recorded PBM binding z-score.
1. CGTCCAAGGGCAAAGGTCAGTGAAGAGATGACGG
2. AGAATGAGGTTATAAGTAGATCAGGGAAGAAAGT
3. TCTTGTAGATCAACAGGAGGTTAAGAACGATCGA
4. CCTAGCAGGCCAGGGTCACTCTAGCATTTCGCTT
5. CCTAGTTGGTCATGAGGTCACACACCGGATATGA
6. CCTTACGGGCCACTCCAGGTTATAGCATCGGAGT

Output:
1.64
1.41
0.686
0.701
2
-0.62
